Sequence of the target: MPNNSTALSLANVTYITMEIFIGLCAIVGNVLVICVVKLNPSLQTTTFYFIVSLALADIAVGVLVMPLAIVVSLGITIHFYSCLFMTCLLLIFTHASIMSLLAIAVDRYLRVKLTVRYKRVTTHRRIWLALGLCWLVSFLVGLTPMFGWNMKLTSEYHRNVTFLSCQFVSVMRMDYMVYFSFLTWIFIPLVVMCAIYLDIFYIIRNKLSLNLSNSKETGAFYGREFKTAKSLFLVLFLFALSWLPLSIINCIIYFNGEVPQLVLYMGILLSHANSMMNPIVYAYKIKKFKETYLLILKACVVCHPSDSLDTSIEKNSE
Observation type: Ki

Examples with answers:
>>> result_value("Cn1c(=O)c2c(nc3n2CCN(Cc2csc(-c4ccc(Cl)cc4)n2)C3)n(C)c1=O")
"> 10 µM"
>>> result_value("Cn1c(=O)c2c(nc3n2CCN(CCc2ccc(F)c(F)c2)C3)n(C)c1=O")
"> 10 µM"
>>> result_value("Cn1c(=O)c2c(nc3n2CCN(CCc2ccc(Cl)cc2Cl)C3)n(C)c1=O")
"30.9 µM"

Q) Entry "Cc1cc(CN2CCn3c(nc4c3c(=O)n(C)c(=O)n4C)C2)n(C)n1" has what Ki?
A) > 10 µM

Q) Another compound to check: "C#CCN1CCn2c(nc3c2c(=O)n(C)c(=O)n3C)C1"
A) > 10 µM

----------
Target: Adenosine receptor A1 (Rattus norvegicus, UniProt P25099)
Sequence (P25099 whole entry): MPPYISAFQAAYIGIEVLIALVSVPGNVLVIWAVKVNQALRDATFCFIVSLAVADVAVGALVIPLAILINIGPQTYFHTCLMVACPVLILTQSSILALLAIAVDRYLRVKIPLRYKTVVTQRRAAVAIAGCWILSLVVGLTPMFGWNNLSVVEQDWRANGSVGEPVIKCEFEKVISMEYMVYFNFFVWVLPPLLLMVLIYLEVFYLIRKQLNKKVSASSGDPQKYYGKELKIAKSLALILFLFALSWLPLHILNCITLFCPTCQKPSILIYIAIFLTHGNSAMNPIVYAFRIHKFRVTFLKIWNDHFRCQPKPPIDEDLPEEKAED
Assay: Displacement of [3H]CCPA from A1 receptor in rat brain cortex membranes by liquid scintillation counting method
Format: cell membranes
pKi: −log10 of the molar value.
Below is a list of entries, each paired with its recorded pKi value.

Examples with answers:
>>> result_value("Cn1c(=O)c2c(nc3n2CCN(CCOc2ccccc2)C3)n(C)c1=O")
"< 5.82"
>>> result_value("Cn1c(=O)c2c(nc3n2CCN([C@H]2CCc4ccccc42)C3)n(C)c1=O")
"< 5.82"
>>> result_value("COc1ccc(CCN2CCn3c(nc4c3c(=O)n(C)c(=O)n4C)C2)cc1OC")
"< 5.82"
>>> result_value("Cn1c(=O)c2c(nc3n2CCN(CCCc2ccccc2)C3)n(C)c1=O")
"< 5.82"
>>> result_value("COc1cccc(C#CCN2CCn3c(nc4c3c(=O)n(C)c(=O)n4C)C2)c1")
"< 5.82"
>>> result_value("Cn1c(=O)c2c(nc3n2CCN(CCc2ccc(Cl)c(Cl)c2)C3)n(C)c1=O")
"< 5.82"

Q) Entry "Cn1c(=O)c2c(nc3n2CCN(CCCn2cccc2)C3)n(C)c1=O" has what pKi?
A) < 5.82

Q) Another molecule to check: "Cn1c(=O)c2c(nc3n2CCN(CCOc2cccc(F)c2)C3)n(C)c1=O"
A) < 5.82

Q) Another molecule to check: "Cn1c(=O)c2c(nc3n2CCN(CCc2cccc(C(F)(F)F)c2)C3)n(C)c1=O"
A) < 5.82

Q) Another molecule to check: "Cn1c(=O)c2c(nc3n2CCN(Cc2csc(-c4ccc(C(F)(F)F)cc4)n2)C3)n(C)c1=O"
A) 6.80

----------
Target: Adenosine receptor A2b (Homo sapiens)
Test: Displacement of [3H]PSB-603 from human A2B receptor expressed in CHO cell membrane at 1 uM relative to control
Format: cell membranes
Please use t for Activity under 20% and f for everything else, ties included.

The following compounds have reported results that may help.
>>> category_label("Cn1c(=O)c2c(nc3n2CCN(CCc2cccc(Cl)c2)C3)n(C)c1=O")
"f"
>>> category_label("Cn1c(=O)c2c(nc3n2CCN(CC#Cc2ccc(Cl)c(Cl)c2)C3)n(C)c1=O")
"t"
>>> category_label("Cn1c(=O)c2c(nc3n2CCN(C2CCN(Cc4ccccc4)CC2)C3)n(C)c1=O")
"t"
>>> category_label("Cn1c(=O)c2c(nc3n2CCN(CCc2ccc(Cl)cc2C(F)(F)F)C3)n(C)c1=O")
"f"

--- query ---
Q) Dear colleague, could you confirm whether Activity of "Cn1c(=O)c2c(nc3n2CCN(CCc2ccc(F)c(F)c2)C3)n(C)c1=O" falls below 20%? Thanks.
A) t
